The origin of these recorded values is patent US20200270225A1.

# system: [V390I/Y410E/E274V]-CfEcR (Choristoneura fumiferana, UniProt O77240)
# Construct: assay construct b835
# Type: cell-based
# conditionInfo: S, 3T3 Cells
valueKind: EC50 (nM)
Entry rule: numbers only, all in nM.

// map CCC[C@@H](C1CCCCC1)N(NC(=O)c1ccccc1)C(=O)c1cc(C)cc(C)c1 [Example 57] to recorded EC50 (system: [V390I/Y410E/E274V]-CfEcR (Choristoneura fumiferana, UniProt O77240))
769

// map CCC[C@H](N(NC(=O)c1ccccc1)C(=O)c1cc(C)cc(C)c1)C(C)(C)C [Example 32] to recorded EC50 (system: [V390I/Y410E/E274V]-CfEcR (Choristoneura fumiferana, UniProt O77240))
267

// map CCC[C@H](N(NC(=O)c1ccc(Cl)nc1)C(=O)c1cc(C)cc(C)c1)C(C)(C)C [Example 46] to recorded EC50 (system: [V390I/Y410E/E274V]-CfEcR (Choristoneura fumiferana, UniProt O77240))
3990

// map CCC[C@H](N(NC(=O)OC(C)(C)C)C(=O)c1cc(C)cc(C)c1)C(C)(C)C [Example 48] to recorded EC50 (system: [V390I/Y410E/E274V]-CfEcR (Choristoneura fumiferana, UniProt O77240))
6600

----------
# system: [V390I/Y410E/E274V]-CfEcR (Choristoneura fumiferana)
# Construct: assay construct b835
# Format: cell-based
# conditionInfo: R, 3T3 Cells
# Description: Cellular gene switch assays were performed by transiently transfecting the following constructs in mouse embryonic fibroblast cells (NIH3T3). […] NIH3T3 cells were maintained at 37′C and 5% CO2 in Dulbecco's modified Eagle's medium (DMEM) supplemented with 10% bovine calf serum, both obtained from Mediatech Inc., Manassas, Va. […] EC50 values were measured minimally in duplicate. […]
valueKind: EC50 (nM)
Entry rule: numbers only, all in nM.

EC50 lookup needed for CCC[C@H](C1CCCCC1)N(NC(=O)c1cccc(OC)c1)C(=O)c1cc(C)cc(C)c1 [Example 54] , thanks.
474

EC50 lookup needed for CCC[C@@H](N(NC(=O)c1ccccc1Cl)C(=O)c1cc(C)cc(C)c1)C(C)(C)C [Example 6] , thanks.
0.63

EC50 lookup needed for CCC[C@H](C1CCCCC1)N(NC(=O)c1ccccc1)C(=O)c1cc(C)cc(C)c1 [Example 53] , thanks.
629

EC50 lookup needed for CCC[C@@H](N(NC(=O)c1ccccc1Br)C(=O)c1cc(C)cc(C)c1)C(C)(C)C [Example 7] , thanks.
1.4

EC50 lookup needed for CCC[C@@H](N(NC(=O)c1cccnc1Cl)C(=O)c1cc(C)cc(C)c1)C(C)(C)C [Example 27] , thanks.
7

EC50 lookup needed for CCC[C@@H](N(NC(=O)c1ccc(Cl)cc1)C(=O)c1cc(C)cc(C)c1)C(C)(C)C [Example 14] , thanks.
51

EC50 lookup needed for CCC[C@@H](N(NC(=O)c1c(Cl)cccc1Cl)C(=O)c1cc(C)cc(C)c1)C(C)(C)C [Example 16] , thanks.
51.2

EC50 lookup needed for CCC[C@@H](N(NC(=O)OC(C)(C)C)C(=O)c1cc(C)cc(C)c1)C(C)(C)C [Example 49] , thanks.
2750

EC50 lookup needed for CCC[C@@H](N(NC(=O)c1cccc(C)c1)C(=O)c1cc(C)cc(C)c1)C(C)(C)C [Example 8] , thanks.
1.2
